Target: cToxR_1-134 (Vibrio cholerae, UniProt P15795 1-134)
Sequence (P15795 1-134): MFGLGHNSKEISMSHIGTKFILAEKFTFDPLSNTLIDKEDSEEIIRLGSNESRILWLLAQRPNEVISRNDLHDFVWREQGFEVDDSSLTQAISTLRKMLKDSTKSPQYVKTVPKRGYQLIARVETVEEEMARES
Assay: fluorescence anisotropy
Settings: protein: recombinant; tags: N-terminal His6; chain copies: 2; none in NMR; blunt
Collected pKd values appear next to each entry.
Remember, pKd is on a log scale: it is -log10 of the molar concentration.

>  <binder>
ompU (dsDNA) DNA 1: ATTTATATCATTTTA DNA 2: TAAAATGATATAAAT

>  <observed_property>
pKd

>  <val>
5.26

$$$$
>  <binder>
toxT (dsDNA) DNA 1: CTCAAAAAACATAAAA DNA 2: TTTTATGTTTTTTGAG

>  <observed_property>
pKd

>  <val>
6.18

$$$$
>  <binder>
ompT (dsDNA) DNA 1: TTTTATGGTATTTGA DNA 2: TCAAATACCATAAAA

>  <observed_property>
pKd

>  <val>
4.89

$$$$

Consider the additional binder presented here.
Q: Return reported pKd; argument: ctx (dsDNA) DNA 1: GATTTTTGATTTT DNA 2: AAAATCAAAAATC
A: 5.01
